Biological target: Interstitial collagenase (Homo sapiens, UniProt P03956)
Sequence (P03956 whole entry): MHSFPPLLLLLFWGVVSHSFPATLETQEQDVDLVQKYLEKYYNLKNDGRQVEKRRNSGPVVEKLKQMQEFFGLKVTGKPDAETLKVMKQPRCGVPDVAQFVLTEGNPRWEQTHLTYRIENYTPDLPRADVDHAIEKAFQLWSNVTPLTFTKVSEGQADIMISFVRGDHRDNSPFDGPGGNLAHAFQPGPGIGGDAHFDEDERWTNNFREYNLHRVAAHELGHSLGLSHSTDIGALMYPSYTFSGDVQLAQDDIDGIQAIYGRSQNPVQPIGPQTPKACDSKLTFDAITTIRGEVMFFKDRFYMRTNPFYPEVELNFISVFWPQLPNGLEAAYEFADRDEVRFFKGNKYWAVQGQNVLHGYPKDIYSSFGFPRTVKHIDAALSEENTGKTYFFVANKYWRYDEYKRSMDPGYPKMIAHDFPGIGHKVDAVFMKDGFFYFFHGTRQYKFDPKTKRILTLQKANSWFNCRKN
pKi: −log10 of the molar value.
Readout label: pKi

Identify measured pKi corresponding to `C=C[C@@H]1OC(c2ccc(Br)cc2)=N[C@H]1Sc1ccccc1`
< 4.52

The reported numbers originate from BindingDB's records for doi:10.1016/j.bmcl.2004.07.023.
